Origin of the recorded values: PubChem BioAssay (NCI)

Test system: HS 578T breast
experiment-summary: NCI tumour cell line growth inhibition, 48 h
value-kind: TGI

# map each compound to its TGI
1. Nc1nc(/C=C\c2ccc([N+](=O)[O-])cc2)nc(N2CCN(c3ccccc3)CC2)n1
2. Cc1ccc2nc(-c3ccc(N)c(Br)c3)sc2c1
3. CC(C)=CCc1c(O)c(CC=C(C)C)c2oc(-c3ccc(O)cc3O)c(CC=C(C)C)c(=O)c2c1O

Reply:
> 100 µM
43.6 µM
45.6 µM

State the recorded TGI for every item in the following list.
1. O=C1c2ccccc2-c2nnc(-c3ccc(Br)cc3)cc21
2. CN1C2CCC1CC(CC(=O)NC(c1ccc(F)cc1)c1ccc(F)cc1)C2 (centres undefined)
3. C=C1OC(=O)[C@]2([C@@H](/C=C/C)C=CC(=O)[C@H]2O)[C@@H]1O
4. CC(=O)O[C@H]1CC2C(C3CCC(C(C)CCC(=O)O)[C@]31C)[C@H](OC(C)=O)C[C@@H]1CC3(CC[C@]21C)OOC1(CC[C@]2(C)C4C[C@H](OC(C)=O)[C@]5(C)C(C(C)CCC(=O)O)CCC5C4[C@H](OC(C)=O)C[C@@H]2C1)OO3 (some centres undefined)
5. COP(=O)(OC)/C(=C/c1c[nH]c2ccccc12)C(=O)O

Reply:
["> 100 µM", "> 100 µM", "> 100 µM", "4.1 µM", "> 100 µM"]

Task item: Form field: reported TGI of N#CC1CNC(N)NC1N (centres undefined)
Reply: > 100 µM

* * *

Test system: DU-145 prostate
experiment-summary: NCI tumour cell line growth inhibition, 48 h
Provide the recorded TGI for the entries that follow.

For orientation, consider the following solved cases.
| molecule | TGI |
| --- | --- |
| COc1cc(C(=O)NC(CCN)(c2ccccc2)c2ccccc2)cc(OC)c1OC | > 31.6 µM |
| O=C1OCC=C1COC1OC(CO)C(O)C(O)C1O (configuration not stated) | > 100 µM |
| C#C[C@]1(O)CC[C@H]2[C@@H]3CCC4=CC(=NCCOC(=O)c5cccc6cc7ccccc7nc56)CC[C@@H]4[C@H]3CC[C@@]21C | > 100 µM |
| Oc1ccc2ccccc2c1CN(Cc1c(O)ccc2ccccc12)C1CCCCC1 | 42.8 µM |
| C=C1OC(=O)[C@]2([C@@H](/C=C/C)C=CC(=O)[C@H]2O)[C@@H]1O | > 100 µM |

Record TGI for all entries; do not skip any.
1. CC1=NN(c2nc(N)nc(C(C#N)C(=O)c3cc4c(cc3Cl)Sc3nccn3S4(=O)=O)n2)C(C)(C)C1 (configuration not stated)
2. COc1ccccc1/C=C1\Sc2scc(-c3ccc(O)c(O)c3)[n+]2C1=O
3. CC(C)c1cc(Cl)nc(Cl)n1

Reply:
["94.4 µM", "57.4 µM", "> 100 µM"]

// input: 3 molecules below; output: TGI for each
1. O=[N+]([O-])c1ccc2c(c1)Sc1ccccc1N2CCCCCl
2. N=C(N)N=Nc1ccc(NN=C(N)N)c2c1ncc1c2nc2sccn21
3. O=c1cc(-c2ccccc2)oc2cc(Oc3nnnn3-c3ccccc3)ccc12

Reply:
> 100 µM
44.3 µM
94.1 µM

Would you mind listing TGI for each of the following molecules?
1. C=C1C(O)C23CCC4C(C(=O)O)(C(=O)O)CC(OC5OC(CO)C(O)C(OC(=O)CCc6ccccc6)C5NC(=O)CC(C)C)CC4(C)C2CCC1(O)C3 (configuration not stated)
2. Cc1cc(O)c(C=O)c2c1C(=O)Oc1c(CO)c(O)c3c(c1O2)C(O)OC3=O (configuration not stated)
3. Cc1cc(S(=O)(=O)n2ccnc2Oc2cccc(Cl)c2)c(SSc2cc(Cl)c(C)cc2S(=O)(=O)n2ccnc2Oc2cccc(Cl)c2)cc1Cl
4. CN(C)CCCNC(=O)N/N=C/c1ccc([N+](=O)[O-])cc1
5. CCOC(=O)[C@H]1O[C@@H]1C(=O)N[C@@H](CC(C)C)C(=O)NCCc1ccc(O)cc1
6. O=C(c1cc(Cl)ccc1Cl)N1CCN(c2cccc(Cl)c2)CC1

Reply:
1: > 100 µM; 2: > 100 µM; 3: > 78.7 µM; 4: > 100 µM; 5: > 100 µM; 6: > 100 µM

Batch: TGI for all items listed.
1. O=C(N/N=C/c1ccccc1O)c1ccccc1O
2. COc1cc(C[C@@H](C)N)cc(OC)c1
3. O=P(O)(NCCCl)NCCCl

Reply:
["> 100 µM", "> 100 µM", "> 100 µM"]

I would be grateful if you could provide TGI for each of the following entries.
1. CSc1ncc2c(n1)-c1ccccc1OC2N1CCCCC1 (configuration not stated)
2. Cn1c(O)c(C2=Nc3ccccc3C2=O)c2ccccc21

Reply:
["> 100 µM", "> 100 µM"]

* * *

Test system: SNB-75 CNS
experiment-summary: NCI tumour cell line growth inhibition, 48 h; in the data active = GI50 below about 0.43 µM; inactive = the rest
Residues, ends and D or L forms follow the SMILES beside them. *: point of attachment. Boc = CC(C)(C)OC(=O)*
Result category, one only: active, inactive

| compound | class-label |
| --- | --- |
| CC(=O)[CH-]C(C)=O.CC(=O)[CH-]C(C)=O.CC(=O)[CH-]C(C)=O.[In+3] | inactive |
| CCOc1nc(-c2ccccc2)cc2c(O)c(C(=O)N/N=C/c3ccc(O)cc3O)[nH]c(=O)c12 | inactive |
| O=C(N/N=C/c1ccccc1O)c1ccccc1O | active |
| COC(=O)CNC(=O)C(Cc1ccccc1)NC(=O)C(Cc1ccccc1)NC(=O)OC(C)(C)C (stereo not drawn) (Boc-Phe-Phe-Gly-OMe; configuration not given here) | inactive |
| C[C@@H]1C[N+]2([O-])[C@H]3C4=CCC[C@@H]4CC[C@H]3[C@@]3(C)OC(=O)CC[C@]34CC[C@H]1[C@@H]42 (stereo not given in full) | inactive |

Task item: Give the logged outcome of this assay for the following compound: O=NN(CCCl)C(=O)NCCCl
Reply: inactive

Task item: Item: N=C(N)N=Nc1ccc(NN=C(N)N)c2c1ncc1c2nc2sccn21
Reply: inactive

Task item: Moving on to CCCCN1CCN(c2ccc3nc(-c4ccc5nc(-c6ccc(OC)c(OC)c6)[nH]c5c4)[nH]c3c2)CC1
Reply: active

Task item: Next entry: CN1CCc2c(c3ccccc3c3ccccc23)C1
Reply: inactive

Task item: Record: NCCN.NCCN.[Cl-].[O]=[Os+2]=[O]
Reply: inactive

* * *

So I've got a bunch of molecules here, and I need their GI50 values.
System: ACHN renal
experiment-summary: NCI tumour cell line growth inhibition, 48 h

| molecule | GI50 |
| --- | --- |
| CCn1cc(C(=O)O)c(=O)c2cc(F)c(N3CCN(S(=O)(=O)c4ccc(Cl)cc4)CC3)cc21 | 3.09 µM |
| N=C(N)N=Nc1ccc(NN=C(N)N)c2c1ncc1c2nc2sccn21 | 22.3 µM |
| CCc1ccc(CNCC(O)c2ccccc2)cc1 (stereo not given) | 31.4 µM |
| CCN1CCN(c2cc(C)nc(N(CCNc3ccnc4cc(Cl)ccc34)Cc3ccc4c(c3)OCO4)n2)CC1 | 1.86 µM |

Task item: Tell me the measured GI50 of O=C(N/N=C/c1ccccc1O)c1ccccc1O , please.
Reply: 0.68 µM

* * *

System: RXF 393 renal
experiment-summary: NCI tumour cell line growth inhibition, 48 h
Provide the reported GI50 of each item.

| compound | GI50 |
| --- | --- |
| CCn1cc(C(=O)O)c(=O)c2cc(F)c(N3CCN(S(=O)(=O)c4ccc(Cl)cc4)CC3)cc21 | 3320 nM |

Would you mind listing GI50 for each of the following compounds?
1. O=C1c2ccccc2-c2nnc(-c3ccc(Br)cc3)cc21
2. O=c1c2cc(F)ccc2sc2c(N3CCNCC3)nc3ccccc3c12
3. CCCS(=O)(=O)Nc1ccc(F)c(C(=O)c2c[nH]c3ncc(Cl)cc23)c1F
4. O=C(O)CNC(=O)C(CS)Cc1ccccc1 (stereo unspecified)
5. ClCc1ccc(-c2ccc(Cn3cnc4nc(Cl)nc(Cl)c43)cc2)cc1
6. COc1cc(NCCCCCN=C(N)N)c2ncccc2c1

Reply:
["> 100000 nM", "1290 nM", "5230 nM", "790 nM", "2500 nM", "24900 nM"]

* * *

So I've got a bunch of molecules here, and I need their GI50 values.
Test system: SNB-19 CNS
experiment-summary: NCI tumour cell line growth inhibition, 48 h

Before answering, review these 5 worked examples.
| molecule | GI50 |
| --- | --- |
| CCOc1nc(-c2ccccc2)cc2c(O)c(C(=O)N/N=C/c3ccc(O)cc3O)[nH]c(=O)c12 | 1.42 µM |
| CC(=O)O[C@H]1CCC2(C)C(=CCC3C2CCC2(C)/C(=N/OC(=O)c4ccc(N(CCCl)CCCl)cc4)CCC32)C1 (stereo not given in full) | 3.16 µM |
| O=C1c2ccccc2-c2nnc(-c3ccc(Br)cc3)cc21 | > 100 µM |
| Nc1nc2c(c3ncccc13)C(c1cccc(Br)c1)Cc1ncccc1-2 (stereo not given) | 11.5 µM |
| CCOC(=O)[C@H]1O[C@@H]1C(=O)N[C@@H](CC(C)C)C(=O)NCCc1ccc(O)cc1 | > 100 µM |

Batch request: GI50 for each of the following molecules.
1. N=C(N)N=Nc1ccc(NN=C(N)N)c2c1ncc1c2nc2sccn21
2. NCCN.NCCN.[Cl-].[O]=[Os+2]=[O]
3. O=C(NCc1ccc(Cl)cc1Cl)c1ccc(NC2=C(Cl)C(=O)N(Cc3ccccc3)C2=O)cc1

Reply:
1: > 100 µM; 2: > 100 µM; 3: 44.1 µM

Please state GI50 for every molecule in the list that follows.
1. O=c1c2cc(F)ccc2sc2c(N3CCNCC3)nc3ccccc3c12
2. ClCc1ccc(-c2ccc(Cn3cnc4nc(Cl)nc(Cl)c43)cc2)cc1

Reply:
1. 1.61 µM
2. 4.58 µM
